SYSTEM TESTED: C3b (Homo sapiens, UniProt P01024)
Construct: the α’NT, MG6^α−8, anchor, and C-terminal complement (CTC) domains of the α-chain that are all shared between C3c and C3b; purchased Complement Technology (Tyler, TX, USA)
Sequence (P01024 23-667 limits assumed): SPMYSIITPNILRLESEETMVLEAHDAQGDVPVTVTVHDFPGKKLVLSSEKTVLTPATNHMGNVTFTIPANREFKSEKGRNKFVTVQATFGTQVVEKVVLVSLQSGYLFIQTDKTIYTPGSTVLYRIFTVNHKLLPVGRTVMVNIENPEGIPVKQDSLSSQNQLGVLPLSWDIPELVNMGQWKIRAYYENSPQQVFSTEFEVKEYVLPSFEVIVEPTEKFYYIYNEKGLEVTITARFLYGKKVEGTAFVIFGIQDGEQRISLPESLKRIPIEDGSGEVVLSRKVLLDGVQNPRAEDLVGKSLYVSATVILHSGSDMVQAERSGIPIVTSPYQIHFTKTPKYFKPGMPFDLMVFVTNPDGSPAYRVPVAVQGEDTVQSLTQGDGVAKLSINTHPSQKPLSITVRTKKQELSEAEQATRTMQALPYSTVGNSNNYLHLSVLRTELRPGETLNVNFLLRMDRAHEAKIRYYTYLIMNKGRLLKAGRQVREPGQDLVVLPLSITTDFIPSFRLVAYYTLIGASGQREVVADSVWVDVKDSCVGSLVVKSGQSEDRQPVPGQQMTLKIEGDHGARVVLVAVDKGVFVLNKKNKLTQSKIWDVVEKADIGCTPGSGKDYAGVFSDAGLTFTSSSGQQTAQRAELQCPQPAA
Sequence (P01024 749-1663 limits assumed): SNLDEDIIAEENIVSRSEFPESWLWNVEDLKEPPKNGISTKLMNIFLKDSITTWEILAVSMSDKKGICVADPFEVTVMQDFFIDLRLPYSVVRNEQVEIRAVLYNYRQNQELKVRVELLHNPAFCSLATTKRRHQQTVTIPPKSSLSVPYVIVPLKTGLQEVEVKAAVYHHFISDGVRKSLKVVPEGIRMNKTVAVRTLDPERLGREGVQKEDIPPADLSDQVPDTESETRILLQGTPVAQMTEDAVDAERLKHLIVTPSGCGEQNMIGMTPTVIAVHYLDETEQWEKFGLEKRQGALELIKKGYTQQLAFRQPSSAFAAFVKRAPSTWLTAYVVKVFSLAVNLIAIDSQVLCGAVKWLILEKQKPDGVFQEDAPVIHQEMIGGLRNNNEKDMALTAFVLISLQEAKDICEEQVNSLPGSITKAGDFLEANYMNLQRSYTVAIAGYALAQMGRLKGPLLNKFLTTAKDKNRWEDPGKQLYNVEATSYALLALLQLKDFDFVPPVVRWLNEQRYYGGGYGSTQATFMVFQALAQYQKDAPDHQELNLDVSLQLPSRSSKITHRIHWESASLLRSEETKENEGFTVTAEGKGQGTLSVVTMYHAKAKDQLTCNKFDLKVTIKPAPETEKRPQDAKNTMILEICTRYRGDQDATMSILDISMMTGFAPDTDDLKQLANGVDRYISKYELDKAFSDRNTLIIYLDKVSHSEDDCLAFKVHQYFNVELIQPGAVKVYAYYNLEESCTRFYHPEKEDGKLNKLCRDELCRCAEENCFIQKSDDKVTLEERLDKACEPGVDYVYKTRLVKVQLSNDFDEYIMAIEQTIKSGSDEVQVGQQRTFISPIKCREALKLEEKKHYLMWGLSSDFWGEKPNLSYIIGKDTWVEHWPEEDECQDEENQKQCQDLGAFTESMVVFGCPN
METHOD: SPR kinetic binding studies on immobilized C3b
TEST PARAMETERS: pH 7.4, read-out: ka, Dataset 3
Bridge positions count the residues as written; N and C are the ends. Square brackets hold non-standard residues; d marks the D form. Peptide text beside a SMILES is read from it. Trp(1-Me) = Cn1cc(C[C@H](N)C(=O)O)c2ccccc21; NMeI = CC[C@H](C)[C@H](NC)C(=O)O; Sar = CNCC(=O)O
MEASURED PROPERTY: kon (M⁻¹ s⁻¹)
Please respond with the number in M⁻¹ s⁻¹ and leave the unit unwritten.

For reference, reported kon for CC[C@H](C)[C@H](NC(=O)[C@H](N)Cc1ccc(O)cc1)C(=O)N[C@H]1CSSC[C@@H](C(=O)N(C)[C@H](C(N)=O)[C@@H](C)CC)NC(=O)[C@H](CO)NC(=O)[C@H](Cc2c[nH]cn2)NC(=O)[C@H](C)NC(=O)CN(C)C(=O)[C@H](Cc2c[nH]c3ccccc23)NC(=O)[C@H](CC(=O)O)NC(=O)[C@H](CCC(N)=O)NC(=O)[C@H](Cc2cn(C)c3ccccc23)NC(=O)[C@H](C(C)C)NC1=O [Cp40 R12S] (H-[dY]ICV[Trp(1-Me)]QDW[Sar]AHSC[NMeI]-NH2; disulfide 3-13) stands at 220000

For reference, reported kon for CC[C@H](C)[C@H](NC(=O)[C@H](N)Cc1ccc(O)cc1)C(=O)N[C@H]1CSSC[C@@H](C(=O)N(C)[C@H](C(N)=O)[C@@H](C)CC)NC(=O)[C@H](CO)NC(=O)[C@H](Cc2c[nH]cn2)NC(=O)[C@H](C)NC(=O)CN(C)C(=O)[C@H](Cc2c[nH]c3ccccc23)NC(=O)[C@H](CO)NC(=O)[C@H](CCC(N)=O)NC(=O)[C@H](Cc2cn(C)c3ccccc23)NC(=O)[C@H](C(C)C)NC1=O [Cp40 D7S/R12S] (H-[dY]ICV[Trp(1-Me)]QSW[Sar]AHSC[NMeI]-NH2; disulfide 3-13) stands at 220000

For reference, reported kon for CC[C@H](C)[C@H](NC(=O)[C@H](C)N)C(=O)N[C@H]1CSSC[C@@H](C(=O)N(C)[C@H](C(N)=O)[C@@H](C)CC)NC(=O)[C@H](CCCNC(=N)N)NC(=O)[C@H](Cc2c[nH]cn2)NC(=O)[C@H](C)NC(=O)CN(C)C(=O)[C@H](Cc2c[nH]c3ccccc23)NC(=O)[C@H](CC(=O)O)NC(=O)[C@H](CCC(N)=O)NC(=O)[C@H](Cc2cn(C)c3ccccc23)NC(=O)[C@H](C(C)C)NC1=O [Cp40 y1A] (H-AICV[Trp(1-Me)]QDW[Sar]AHRC[NMeI]-NH2; disulfide 3-13) stands at 290000

For reference, reported kon for CC[C@H](C)[C@H](NC(=O)[C@H](N)Cc1ccc(O)cc1)C(=O)N[C@H]1CSSC[C@@H](C(=O)N(C)[C@H](C(N)=O)[C@@H](C)CC)NC(=O)[C@H](CCCCN)NC(=O)[C@H](Cc2c[nH]cn2)NC(=O)[C@H](C)NC(=O)CN(C)C(=O)[C@H](Cc2c[nH]c3ccccc23)NC(=O)[C@H](CC(=O)O)NC(=O)[C@H](CCC(N)=O)NC(=O)[C@H](Cc2cn(C)c3ccccc23)NC(=O)[C@H](C(C)C)NC1=O [Cp40 R12K] (H-[dY]ICV[Trp(1-Me)]QDW[Sar]AHKC[NMeI]-NH2; disulfide 3-13) stands at 780000

For reference, reported kon for CC[C@H](C)[C@H](NC(C)=O)C(=O)N[C@H]1CSSC[C@@H](C(=O)N(C)[C@H](C(N)=O)[C@@H](C)CC)NC(=O)[C@H](CCCNC(=N)N)NC(=O)[C@H](Cc2c[nH]cn2)NC(=O)[C@H](C)NC(=O)CN(C)C(=O)[C@H](Cc2c[nH]c3ccccc23)NC(=O)[C@H](CC(=O)O)NC(=O)[C@H](CCC(N)=O)NC(=O)[C@H](Cc2cn(C)c3ccccc23)NC(=O)[C@H](C(C)C)NC1=O [Cp20, reference compound] stands at 960000

For reference, reported kon for CC[C@H](C)[C@H](NC(=O)[C@H](N)Cc1ccc(O)cc1)C(=O)N[C@H]1CSSC[C@@H](C(=O)N(C)[C@H](C(N)=O)[C@@H](C)CC)NC(=O)[C@H](CCCNC(=N)N)NC(=O)[C@H](Cc2c[nH]cn2)NC(=O)[C@H](C)NC(=O)CN(C)C(=O)[C@H](Cc2c[nH]c3ccccc23)NC(=O)[C@H](CO)NC(=O)[C@H](CCC(N)=O)NC(=O)[C@H](Cc2cn(C)c3ccccc23)NC(=O)[C@H](C(C)C)NC1=O [Cp40 D7S] (H-[dY]ICV[Trp(1-Me)]QSW[Sar]AHRC[NMeI]-NH2; disulfide 3-13) stands at 170000

For reference, reported kon for CC[C@H](C)[C@H](NC(=O)[C@H](N)Cc1ccc(O)cc1)C(=O)N[C@H]1CSSC[C@@H](C(=O)N(C)[C@H](C(N)=O)[C@@H](C)CC)NC(=O)[C@H](CCCNC(N)=O)NC(=O)[C@H](Cc2c[nH]cn2)NC(=O)[C@H](C)NC(=O)CN(C)C(=O)[C@H](Cc2c[nH]c3ccccc23)NC(=O)[C@H](CC(=O)O)NC(=O)[C@H](CCC(N)=O)NC(=O)[C@H](Cc2cn(C)c3ccccc23)NC(=O)[C@H](C(C)C)NC1=O stands at 790000

For reference, reported kon for CC[C@H](C)[C@H](NC(=O)[C@H](N)Cc1ccc(O)cc1)C(=O)N[C@H]1CSSC[C@@H](C(N)=O)NC(=O)[C@H](CCCNC(=N)N)NC(=O)[C@H](Cc2c[nH]cn2)NC(=O)[C@H](C)NC(=O)CN(C)C(=O)[C@H](Cc2c[nH]c3ccccc23)NC(=O)[C@H](CC(=O)O)NC(=O)[C@H](CCC(N)=O)NC(=O)[C@H](Cc2cn(C)c3ccccc23)NC(=O)[C@H](C(C)C)NC1=O [Cp40 ΔmI14] (H-[dY]ICV[Trp(1-Me)]QDW[Sar]AHRC-NH2; disulfide 3-13) stands at 1.8e+06

For reference, reported kon for CC[C@H](C)[C@H](NC(=O)[C@H](N)Cc1ccc(O)cc1)C(=O)N[C@H]1CSSC[C@@H](C(=O)N(C)[C@H](C(N)=O)[C@@H](C)CC)NC(=O)[C@H](CCCNC(=N)N)NC(=O)[C@H](Cc2c[nH]cn2)NC(=O)[C@H](C)NC(=O)CN(C)C(=O)[C@H](Cc2c[nH]c3ccccc23)NC(=O)[C@H](CC(=O)O)NC(=O)[C@H](CCC(N)=O)NC(=O)[C@H](Cc2c[nH]c3ccccc23)NC(=O)[C@H](C(C)C)NC1=O stands at 180000

###

SYSTEM TESTED: C3b (Homo sapiens)
Construct: the α’NT, MG6^α−8, anchor, and C-terminal complement (CTC) domains of the α-chain that are all shared between C3c and C3b; purchased Complement Technology (Tyler, TX, USA)
METHOD: SPR kinetic binding studies on immobilized C3b
TEST PARAMETERS: pH 7.4, read-out: ka, Dataset 1
Bridge positions count the residues as written; N and C are the ends. Square brackets hold non-standard residues; d marks the D form. Peptide text beside a SMILES is read from it. Trp(1-Me) = Cn1cc(C[C@H](N)C(=O)O)c2ccccc21; NMeI = CC[C@H](C)[C@H](NC)C(=O)O; Sar = CNCC(=O)O
MEASURED PROPERTY: kon (M⁻¹ s⁻¹)
Please respond with the number in M⁻¹ s⁻¹ and leave the unit unwritten.

For reference, reported kon for CC[C@H](C)[C@H](NC(=O)[C@H](N)Cc1ccc(O)cc1)C(=O)N[C@H]1CSSC[C@@H](C(=O)N(C)[C@H](C(N)=O)[C@@H](C)CC)NC(=O)[C@H](CCCCN)NC(=O)[C@H](Cc2c[nH]cn2)NC(=O)[C@H](C)NC(=O)CN(C)C(=O)[C@H](Cc2c[nH]c3ccccc23)NC(=O)[C@H](CC(=O)O)NC(=O)[C@H](CCC(N)=O)NC(=O)[C@H](Cc2cn(C)c3ccccc23)NC(=O)[C@H](C(C)C)NC1=O [Cp40 R12K] (H-[dY]ICV[Trp(1-Me)]QDW[Sar]AHKC[NMeI]-NH2; disulfide 3-13) stands at 630000

For reference, reported kon for CC[C@H](C)[C@H](NC(=O)[C@H](N)Cc1ccc(O)cc1)C(=O)N[C@H]1CSSC[C@@H](C(=O)N(C)[C@H](C(N)=O)[C@@H](C)CC)NC(=O)[C@H](CCCNC(=N)N)NC(=O)[C@H](Cc2c[nH]cn2)NC(=O)[C@H](C)NC(=O)CN(C)C(=O)[C@H](Cc2c[nH]c3ccccc23)NC(=O)[C@H](CCC(=O)O)NC(=O)[C@H](CCC(N)=O)NC(=O)[C@H](Cc2cn(C)c3ccccc23)NC(=O)[C@H](C(C)C)NC1=O [Cp40 D7E] (H-[dY]ICV[Trp(1-Me)]QEW[Sar]AHRC[NMeI]-NH2; disulfide 3-13) stands at 1.17e+06

For reference, reported kon for CC[C@H](C)[C@H](NC(=O)[C@H](N)Cc1ccc(O)cc1)C(=O)N[C@H]1CSSC[C@@H](C(=O)N(C)[C@H](C(N)=O)[C@@H](C)CC)NC(=O)[C@H](CCCNC(=N)N)NC(=O)[C@H](Cc2c[nH]cn2)NC(=O)[C@H](C)NC(=O)CN(C)C(=O)[C@H](Cc2c[nH]c3ccccc23)NC(=O)[C@H](CO)NC(=O)[C@H](CCC(N)=O)NC(=O)[C@H](Cc2cn(C)c3ccccc23)NC(=O)[C@H](C(C)C)NC1=O [Cp40 D7S] (H-[dY]ICV[Trp(1-Me)]QSW[Sar]AHRC[NMeI]-NH2; disulfide 3-13) stands at 80000

For reference, reported kon for CC[C@H](C)[C@H](NC(=O)[C@@H](C)N)C(=O)N[C@H]1CSSC[C@@H](C(=O)N(C)[C@H](C(N)=O)[C@@H](C)CC)NC(=O)[C@H](CCCNC(=N)N)NC(=O)[C@H](Cc2c[nH]cn2)NC(=O)[C@H](C)NC(=O)CN(C)C(=O)[C@H](Cc2c[nH]c3ccccc23)NC(=O)[C@H](CC(=O)O)NC(=O)[C@H](CCC(N)=O)NC(=O)[C@H](Cc2cn(C)c3ccccc23)NC(=O)[C@H](C(C)C)NC1=O [Cp40 y1a] stands at 840000

For reference, reported kon for CC[C@H](C)[C@H](NC(=O)[C@H](N)Cc1ccc(O)cc1)C(=O)N[C@H]1CSSC[C@@H](C(=O)N(C)[C@H](C(N)=O)[C@@H](C)CC)NC(=O)[C@H](CO)NC(=O)[C@H](Cc2c[nH]cn2)NC(=O)[C@H](C)NC(=O)CN(C)C(=O)[C@H](Cc2c[nH]c3ccccc23)NC(=O)[C@H](CO)NC(=O)[C@H](CCC(N)=O)NC(=O)[C@H](Cc2cn(C)c3ccccc23)NC(=O)[C@H](C(C)C)NC1=O [Cp40 D7S/R12S] (H-[dY]ICV[Trp(1-Me)]QSW[Sar]AHSC[NMeI]-NH2; disulfide 3-13) stands at 20000

For reference, reported kon for CC[C@H](C)[C@H](NC(=O)[C@H](C)N)C(=O)N[C@H]1CSSC[C@@H](C(=O)N(C)[C@H](C(N)=O)[C@@H](C)CC)NC(=O)[C@H](CCCNC(=N)N)NC(=O)[C@H](Cc2c[nH]cn2)NC(=O)[C@H](C)NC(=O)CN(C)C(=O)[C@H](Cc2c[nH]c3ccccc23)NC(=O)[C@H](CC(=O)O)NC(=O)[C@H](CCC(N)=O)NC(=O)[C@H](Cc2cn(C)c3ccccc23)NC(=O)[C@H](C(C)C)NC1=O [Cp40 y1A] (H-AICV[Trp(1-Me)]QDW[Sar]AHRC[NMeI]-NH2; disulfide 3-13) stands at 470000

For reference, reported kon for CC[C@H](C)[C@H](NC(C)=O)C(=O)N[C@H]1CSSC[C@@H](C(=O)N(C)[C@H](C(N)=O)[C@@H](C)CC)NC(=O)[C@H](CCCNC(=N)N)NC(=O)[C@H](Cc2c[nH]cn2)NC(=O)[C@H](C)NC(=O)CN(C)C(=O)[C@H](Cc2c[nH]c3ccccc23)NC(=O)[C@H](CC(=O)O)NC(=O)[C@H](CCC(N)=O)NC(=O)[C@H](Cc2cn(C)c3ccccc23)NC(=O)[C@H](C(C)C)NC1=O [Cp20, reference compound] stands at 1.63e+06

For reference, reported kon for CC[C@H](C)[C@H](NC(=O)[C@H](N)Cc1ccc(O)cc1)C(=O)N[C@H]1CSSC[C@@H](C(=O)N(C)[C@H](C(N)=O)[C@@H](C)CC)NC(=O)[C@H](CCCNC(=N)N)NC(=O)[C@H](Cc2c[nH]cn2)NC(=O)[C@H](C)NC(=O)CNC(=O)[C@H](Cc2c[nH]c3ccccc23)NC(=O)[C@H](CC(=O)O)NC(=O)[C@H](CCC(N)=O)NC(=O)[C@H](Cc2cn(C)c3ccccc23)NC(=O)[C@H](C(C)C)NC1=O [Cp40 Sar9G] stands at 1.29e+06

For reference, reported kon for CC[C@H](C)[C@H](NC(=O)[C@H](N)Cc1ccc(O)cc1)C(=O)N[C@H]1CSSC[C@@H](C(=O)N(C)[C@H](C(N)=O)[C@@H](C)CC)NC(=O)[C@H](CCCNC(N)=O)NC(=O)[C@H](Cc2c[nH]cn2)NC(=O)[C@H](C)NC(=O)CN(C)C(=O)[C@H](Cc2c[nH]c3ccccc23)NC(=O)[C@H](CC(=O)O)NC(=O)[C@H](CCC(N)=O)NC(=O)[C@H](Cc2cn(C)c3ccccc23)NC(=O)[C@H](C(C)C)NC1=O [Cp40 R12Cit] stands at 320000
